molecular target: D2SR/NTS1R (Homo sapiens, UniProt P14416+P30989); experiment: cAMP BRET assay (CAMYEL biosensor), HEK 293 T cells coexpressing D2SR and NTS1R; conditions: read-out: EC50 D2SR/NTS1R, cAMP accumulation
Sequence (P14416 1-414 isoform P14416-2): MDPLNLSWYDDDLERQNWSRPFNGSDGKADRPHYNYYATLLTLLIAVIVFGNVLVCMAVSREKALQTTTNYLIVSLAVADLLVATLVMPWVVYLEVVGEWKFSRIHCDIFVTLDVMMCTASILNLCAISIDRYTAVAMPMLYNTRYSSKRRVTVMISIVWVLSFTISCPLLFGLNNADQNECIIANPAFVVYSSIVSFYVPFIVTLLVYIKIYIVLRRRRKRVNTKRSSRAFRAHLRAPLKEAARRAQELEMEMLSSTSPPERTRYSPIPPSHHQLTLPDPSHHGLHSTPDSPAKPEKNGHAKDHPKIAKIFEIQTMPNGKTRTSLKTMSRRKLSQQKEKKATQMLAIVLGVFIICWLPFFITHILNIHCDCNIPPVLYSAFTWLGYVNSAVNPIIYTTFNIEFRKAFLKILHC
Sequence (P30989 whole entry): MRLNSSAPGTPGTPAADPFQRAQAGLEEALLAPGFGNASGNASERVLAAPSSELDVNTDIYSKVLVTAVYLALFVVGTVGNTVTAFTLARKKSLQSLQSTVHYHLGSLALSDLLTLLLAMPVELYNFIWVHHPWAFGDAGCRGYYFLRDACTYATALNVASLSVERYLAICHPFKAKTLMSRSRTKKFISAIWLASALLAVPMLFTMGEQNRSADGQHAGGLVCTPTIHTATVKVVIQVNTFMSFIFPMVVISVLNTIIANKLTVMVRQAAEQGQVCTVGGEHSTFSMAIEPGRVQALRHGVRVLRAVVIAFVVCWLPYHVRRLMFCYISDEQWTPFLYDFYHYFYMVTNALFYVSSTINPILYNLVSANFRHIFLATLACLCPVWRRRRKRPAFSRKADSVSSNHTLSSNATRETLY
METRIC: EC50 (nM)
Report as a plain number; the unit nM is understood.

In: Look up EC50 for this compound: "CCCN(CCCCc1cn(-c2ccc(-c3ccc(C(=O)NCCOC)cc3)cc2)nn1)C1Cc2ccccc2C1"
Out: 3.5

* * *

// pKi lookup, one value per entry
Biological target: hD4.4R (Homo sapiens, UniProt P21917)
Sequence (P21917 1-419): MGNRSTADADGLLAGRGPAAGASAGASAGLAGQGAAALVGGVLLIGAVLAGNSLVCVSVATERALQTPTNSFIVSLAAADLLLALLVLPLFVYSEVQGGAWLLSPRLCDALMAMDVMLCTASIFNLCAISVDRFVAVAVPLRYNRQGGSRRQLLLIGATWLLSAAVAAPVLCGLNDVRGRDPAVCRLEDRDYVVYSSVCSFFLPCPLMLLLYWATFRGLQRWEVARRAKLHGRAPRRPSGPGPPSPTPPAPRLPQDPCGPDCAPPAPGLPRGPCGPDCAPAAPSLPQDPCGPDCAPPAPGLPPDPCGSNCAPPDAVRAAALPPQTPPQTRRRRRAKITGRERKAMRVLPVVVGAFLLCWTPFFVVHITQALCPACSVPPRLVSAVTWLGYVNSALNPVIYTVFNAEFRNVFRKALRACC
Remember the convention: pKi equals -log10 of concentration in molar.

The cases that follow already have their pKi on record.
>>> readout_number("CC[C@H](C)[C@H](NC(=O)[C@H](Cc1ccc(O)cc1)NC(=O)[C@@H]1CCCN1C(=O)[C@H](CCCNC(=N)N)NC(=O)[C@H](CCCNC(=N)N)NC(=O)CCOCCOCCOCCOCCOCCOCCNC(=O)CCOCCOCCOCCOCCOCCOCCNC(=O)CCOCCOCCOCCOCCOCCOCCNC(=O)c1ccc(-c2ccc(-n3cc(CCCCN4CCN(c5ccccc5OC)CC4)nn3)cc2)cc1)C(=O)N[C@@H](CC(C)C)C(=O)O")
6.37
>>> readout_number("CCc1cc(Cl)c(OC)c(C(=O)NC[C@@H]2C[C@@H](OCCCCc3cn(-c4ccc(-c5ccc(C(=O)NCCOCCOCCOCCOCCOCCOCCC(=O)NCCOCCOCCOCCOCCOCCOCCC(=O)NCCOCCOCCOCCOCCOCCOCCC(=O)N[C@@H](CCCNC(=N)N)C(=O)N[C@@H](CCCNC(=N)N)C(=O)N6CCC[C@H]6C(=O)N[C@@H](Cc6ccc(O)cc6)C(=O)N[C@H](C(=O)N[C@@H](CC(C)C)C(=O)O)[C@@H](C)CC)cc5)cc4)nn3)CN2CC)c1O")
6.38

Turning now to a further compound:
In: Look up pKi for this compound: "CCc1cc(Cl)c(OC)c(C(=O)NC[C@@H]2C[C@@H](OCCCCc3cn(-c4ccc(-c5ccc(C(=O)NCCOCCOCCOCCOCCOCCOCCC(=O)N[C@@H](CCCNC(=N)N)C(=O)N[C@@H](CCCNC(=N)N)C(=O)N6CCC[C@H]6C(=O)N[C@@H](Cc6ccc(O)cc6)C(=O)N[C@H](C(=O)N[C@@H](CC(C)C)C(=O)O)[C@@H](C)CC)cc5)cc4)nn3)CN2CC)c1O"
Out: 6.33
